# System: U2OS
# assay-protocol: Multiplex assay against U2OS
# Type: toxicity, cell-based
# particulars: human, 24 h, 10 µM, compound concentration 10 uM, replicate 2
As shown below, each of these compounds has a reported Population Hoechst High Intensity Objects (%) value.
Give a bare numeral; the unit % is implied.

compound=Cc1ccc2nc(NCCN)c3ncc(C)n3c2c1.O=C(O)C(F)(F)F.O=C(O)C(F)(F)F units_of_measure=% value_reported=14
compound=CCCS(=O)(=O)c1nc(NC2CC2)cc(-c2ccc3c(ccn3C3CC(C)(C)NC(C)(C)C3)c2)n1 units_of_measure=% value_reported=7
compound=CCc1cccc(CC)c1NC(=O)c1nn(C)c2c1CCc1cnc(Nc3ccc(C(=O)NC4CCN(C)CC4)cc3OC(F)(F)F)nc1-2 units_of_measure=% value_reported=2
compound=O=C(Nc1cccnn1)N1CCC(=Cc2cccc(Oc3ccc(C(F)(F)F)cn3)c2)CC1 units_of_measure=% value_reported=7

Proceed to the following item.
# input Supply reported Population Hoechst High Intensity Objects (%) belonging to this compound: COc1cccc2cc(-c3nc([C@H]4CC[C@H](C(=O)O)CC4)n4ncnc(N)c34)[nH]c12 [OSI-027]
# output 11

###

# Test system: HEK-293T
# assay-protocol: Multiplex assay against HEK293T
# Type: toxicity, cell-based
# particulars: human, 48 h, 1 µM, compound concentration 1 uM, replicate 2
Flag rule - Population Hoechst High Intensity Objects (%) less than 3% flags TRUE; the remaining entries get FALSE.

compound=O=C1NC(=O)C(c2cnc3ccccn23)=C1c1cn2c3c(cc(F)cc13)CN(C(=O)N1CCCCC1)CC2 measurement_target=HEK-293T label_class=FALSE
compound=CNc1cc(Oc2cc(C(=O)Nc3cc(N4CCN(C)CC4)cc(C(F)(F)F)c3)ccc2C)ncn1 measurement_target=HEK-293T label_class=FALSE
compound="CN1C2CCC1CC(OC(c1ccc(F)cc1)c1ccc(F)cc1)C2.Cl (stereo not given)" measurement_target=HEK-293T label_class=TRUE

# input # check: Population Hoechst High Intensity Objects (%) < 3% for `Cc1ccc(C(=O)Nc2cccc(C(F)(F)F)c2)cc1Nc1nc(-c2cccnc2)nc2c1cnn2C`
# output FALSE

# input # check: Population Hoechst High Intensity Objects (%) < 3% for `O=C(Nc1ccc(-n2nc(-c3cccnc3)cc2C(F)(F)F)cn1)c1ccc(-c2ccccc2)c(F)c1`
# output TRUE

# input # check: Population Hoechst High Intensity Objects (%) < 3% for `CCOc1cc2ncc(C#N)c(Nc3ccc(OCc4ccccn4)c(Cl)c3)c2cc1NC(=O)/C=C/CN(C)C`
# output FALSE

# input # check: Population Hoechst High Intensity Objects (%) < 3% for `O=C1N/C(=N/c2ccccc2F)S/C1=C\c1ccc(C(=O)O)cc1`
# output FALSE

# input # check: Population Hoechst High Intensity Objects (%) < 3% for `CCCS(=O)(=O)c1nc(NC2CC2)cc(-c2ccc3c(ccn3C3CC(C)(C)NC(C)(C)C3)c2)n1`
# output FALSE

# input # check: Population Hoechst High Intensity Objects (%) < 3% for CN1CCC(=C2c3ccccc3CC(=O)c3sccc32)CC1.O=C(O)/C=C/C(=O)O [KETOTIFEN FUMARATE]
# output FALSE

# input # check: Population Hoechst High Intensity Objects (%) < 3% for `O=C(Cc1ccc(-c2ccc(OCCN3CCOCC3)cc2)cn1)NCc1ccccc1`
# output FALSE
